Test system: Molm13
Test: cell viability relative to DMSO control (bortezomib = 0%); higher = less growth inhibition
Conditions: 10 nM; 72 h
Structures can show the parent of a compound that is named as a salt.
In this section, each of the compounds is paired with its reported cell viability.
quantity.name: cell viability

* FC(F)(F)c1ccc(CNc2ccc(Cc3c[nH]c4ncc(Cl)cc34)cn2)cn1 | 89.2%
* Nc1nc(O)c2ncn(CCC(CO)CO)c2n1 | 111%
* O=C(Nc1ccc(OC(F)(F)F)cc1)c1sccc1NCc1ccnc2ccccc12 | 111%
* Cc1cc2sc(NC(=O)Cc3ccccc3)nc2cc1Cl | 116%
* c1cc(-c2cnn3cc(-c4ccc(OCCN5CCCCC5)cc4)cnc23)ccn1 | 95.5%
* COC(=O)C1=CC[C@@]23CC[C@@H]([C@@](C)(/C=C/C=C(\C)C(=O)O)OC2=O)[C@@]3(OC(C)=O)CC1 | 101%
* CCOc1cc2ncc(C#N)c(Nc3ccc(F)c(Cl)c3)c2cc1NC(=O)/C=C/CN(C)C [Pelitinib (EKB-569)] | 104%
* CNC(=O)c1cc(Oc2ccc(NC(=O)Nc3cc(C(C)(C)C)nn3-c3ccc4ncccc4c3)c(F)c2)ccn1 [DCC-2036 (Rebastinib)] | 95.7%
* Cc1cc(Nc2nn(-c3ccccc3)c(=O)c3ccccc23)n[nH]1 | 94.1%
* CN1CCN(c2nc(C3=C(c4c[nH]c5ccccc45)C(=O)NC3=O)c3ccccc3n2)CC1 | 99%
* C[C@@H]1O[C@@H](O[C@@H]2[C@@H](O)[C@H](OCCc3ccc(O)c(O)c3)O[C@H](CO)[C@H]2OC(=O)/C=C/c2ccc(O)c(O)c2)[C@H](O)[C@H](O)[C@H]1O [Verbascoside] | 89.4%
* CNC(=O)c1ccccc1Sc1ccc2c(/C=C/c3ccccn3)n[nH]c2c1 | 120%
* COc1ccc(C=C(C#N)c2cccnc2)cc1OC | 100%
* O=C1Cc2c([nH]c3ccc(Br)cc23)-c2ccccc2N1 [Kenpaullone] | 88%
* O=C(Nc1nc2ccc(NC(=O)C34CC5CC(CC(C5)C3)C4)cc2s1)c1ccccc1 | 117%
* CS(=O)(=O)c1ccc(-c2nc(-c3ccc(F)cc3)c(-c3ccncc3)[nH]2)cc1 | 108%
* CN(C)CCN(Cc1ccc(Cl)cc1)c1ccccn1 [Chloropyramine hydrochloride] | 105%
* Nc1nccc(Oc2ccc3c(C(=O)Nc4cccc(C(F)(F)F)c4)cccc3c2)n1 | 94.7%
* O=C1NC(=O)/C(=C/c2ccc(-c3ccc(F)cc3O)o2)S1 | 106%
* CCCC(CCC)C(=O)O [Valproic Acid (sodium salt)] | 100%
* CC(C)=CCc1cc2c(cc1O)oc(=O)c1c3ccc(O)cc3oc21 | 111%
* COc1cc(N2CCOCC2)ccc1Nc1ncc(Cl)c(Nc2ccccc2NS(C)(=O)=O)n1 | 108%
* Cc1ccc(C(=O)Nc2ccc(CN3CCN(C)CC3)c(C(F)(F)F)c2)cc1C#Cc1cnc2cccnn12 | 6.99%
* COc1ccc(COc2ccc(Cc3cnc(N)nc3N)cc2OC)cc1 | 110%
* COC(=O)Nc1nc2cc(C(=O)c3cccs3)ccc2[nH]1 | 113%
* Cc1cc(O)c2c(c1)C(=O)c1cc(O)cc(O)c1C2=O | 91.2%
* NCCNS(=O)(=O)c1cccc2cnccc12 [H-9 (hydrochloride)] | 114%
* COc1cc2ncnc(Nc3cccc(Cl)c3F)c2cc1OC(=O)N1CCN(C)C[C@H]1C | 110%
* Cc1ccc(C(=O)N(CCCN)[C@@H](c2nc3cc(Cl)ccc3c(=O)n2Cc2ccccc2)C(C)C)cc1 | 2.83%
